method_notes: clinical
test_context: human, in vivo, iv
Output: class label from fraction unbound. Mapping: group A (below 0.08), group B (0.08 to below 0.4), group C (0.4 or more)

Past entries and their recorded results:
NC(=O)OC[C@@H]1[C@H](NC(=O)/C(=N\OCC(=O)O)c2csc(N)n2)C(=O)N1S(=O)(=O)O = group C
CC[C@H](OC(C)=O)C(C[C@H](C)N(C)C)(c1ccccc1)c1ccccc1 [LEVOMETHADYL ACETATE] = group B
C=CCC1(C(C)C#CCC)C(=O)N=C(O)N(C)C1=O (stereo unspecified) = group B
CC(=O)[C@]1(O)Cc2c(O)c3c(c(O)c2[C@@H](O[C@H]2C[C@H](N)[C@H](O)[C@H](C)O2)C1)C(=O)c1ccccc1C3=O = group A
COc1ccc2cc1Oc1cc3c(cc1OC)CC[N+](C)(C)[C@H]3Cc1ccc(cc1)Oc1c(OC)c(OC)cc3c1[C@@H](C2)[N+](C)(C)CC3.[I-].[I-] [METOCURINE IODIDE] = group C
CC1(C)C[C@@H]1C(=O)N/C(=C\CCCCSC[C@H](N)C(=O)O)C(=O)O = group C

Attention now shifts to the item below.
Request: Which band does C[C@@H]([C@@H](O)c1ccc(O)cc1)N1CCC(O)(c2ccccc2)CC1 fall in?
Response: group C

====

method_notes: clinical
test_context: human, in vivo, iv, Vdss
measured_property: Vd (L/kg)
Enter your answer as a number in L/kg; do not include the unit.

Worked cases, answers included:
CCCC(C)C1(CC)C(=O)NC(=O)NC1=O (centres undefined) [PENTOBARBITAL] = 0.91
CCCCC1=NC2(CCCC2)C(=O)N1Cc1ccc(-c2ccccc2-c2nnn[nH]2)cc1 [IRBESARTAN] = 0.94
N=C(N)N1CCC[C@@H](CNC(=O)C[C@H](NS(=O)(=O)c2ccc3ccccc3c2)C(=O)N(CC(=O)O)C2CC2)C1 [NAPSAGATRAN ANHYDROUS] = 0.36
N#Cc1ccc2c(c1)CN(S(=O)(=O)c1cccs1)[C@H](Cc1ccccc1)CN2Cc1cnc[nH]1 [BMS-214662] = 0.84
O=C(O[C@H]1CN2CCC1CC2)N1CCc2ccccc2[C@@H]1c1ccccc1 [SOLIFENACIN] = 8.2

Request: Fill in: Vd of CC(C)N(CCC(C(N)=O)(c1ccccc1)c1ccccn1)C(C)C (centres undefined) [DISOPYRAMIDE] is ___
Response: 0.52

Request: Fill in: Vd of CC1(C)C(/C=C/C=C/C=C/C=C2/N(CCCCS(=O)(=O)[O-])c3ccc4ccccc4c3C2(C)C)=[N+](CCCCS(=O)(=O)[O-])c2ccc3ccccc3c21.[Na+] [INDOCYANINE GREEN] is ___
Response: 0.035

====

method_notes: clinical
test_context: human, in vivo, iv, Vdss
measured_property: Vd (L/kg)
Enter your answer as a number in L/kg; do not include the unit.

Worked cases, answers included:
COC(=O)C1=C(C)NC(C)=C(C(=O)OC(C)C)C1c1cccc2nonc12 (stereo not given) = 1.5
COc1cc2nc(N(C)CCCNC(=O)C3CCCO3)nc(N)c2cc1OC (stereo not given) = 1.5

Request: Fill in: Vd of Nc1ccc(S(=O)(=O)c2ccc(N)cc2)cc1 is ___
Response: 0.83

Request: Fill in: Vd of C[C@@H]1CC2=CC(=O)CC[C@]2(C)[C@H]2CC[C@@]3(C)[C@@H](CC[C@@H]3O)[C@]12C is ___
Response: 0.8

Request: Fill in: Vd of CCN(C)C(=O)Oc1cccc([C@H](C)N(C)C)c1 is ___
Response: 1.3

Request: Fill in: Vd of CCCCCC/C=C\CCCCCCCCCC(=O)N[C@H]1[C@H](OC[C@H]2O[C@H](OP(=O)(O)O)[C@H](NC(=O)CC(=O)CCCCCCCCCCC)[C@@H](OCCCCCCCCCC)[C@@H]2O)O[C@H](COC)[C@@H](OP(=O)(O)O)[C@@H]1OCC[C@@H](CCCCCCC)OC is ___
Response: 0.048

Request: Fill in: Vd of CCO[C@@H](Cc1ccc(OCCc2ccc(OS(C)(=O)=O)cc2)cc1)C(=O)O is ___
Response: 0.13

Request: Fill in: Vd of O=C1Cc2cc(CCN3CCN(c4nsc5ccccc45)CC3)c(Cl)cc2N1 is ___
Response: 1
